Experiment: qHTS assay for identifying genotoxic compounds that show differential cytotoxicity against isogenic chicken DT40 cell lines with known DNA damage response pathways - wild type cell line (AID 743012); also: nearly all actives have a fitted effect of over 60% in size
Conditions: DT40 wild type chicken cells viability, CellTiter-Glo, 40 h; series mostly up to 68.4 µM
Records with an inconclusive call do not appear. Activity calls are given as the source filed them. Calls follow the shape of the dose curve; as a rule, active = well fitted cell-killing curve with a large enough effect in the repeat runs; inconclusive = weak or mixed curves, or effect the other way; inactive = no such curve, though single readings can be large or run the other way.
Possible outcomes: 1.0 (active), 0.0 (inactive)

compound: CC(C)N=C(N)/N=C(\N)Nc1ccc(Cl)cc1
discreteLabel: 1.0
--
compound: CCCCCCCCCCCCCC[n+]1ccccc1
discreteLabel: 1.0
--
compound: O=C(Nc1ccc(Cl)cc1)Nc1ccc(Cl)c(C(F)(F)F)c1
discreteLabel: 1.0
--
compound: COC(=O)C1=C(C)NC(C)=C(C(=O)OCCCN2CCC(c3ccccc3)(c3ccccc3)CC2)C1c1cccc([N+](=O)[O-])c1 (configuration not stated)
discreteLabel: 1.0
--
compound: O=C(O)c1cccc(Cl)n1
discreteLabel: 1.0
--
compound: C=C[C@](C)(O)CC[C@@H]1[C@@]2(C)CCCC(C)(C)[C@@H]2CC[C@@]1(C)O
discreteLabel: 1.0
--
compound: C=CCCCCCCC=C
discreteLabel: 0.0
--
compound: CCCCCCCCCCOCC(O)CN (configuration not stated)
discreteLabel: 1.0
--
compound: CN(C)CCCN1c2ccccc2Sc2ccc(C(F)(F)F)cc21
discreteLabel: 1.0
--
compound: COc1cc(C(C)C)c2c(c1)S(=O)(=O)N(COc1cc(=O)n3cccc(OCCN4CCCCC4)c3n1)C2=O
discreteLabel: 1.0
--
compound: C=C(c1ccc(C(=O)O)cc1)c1cc2c(cc1C)C(C)(C)CCC2(C)C
discreteLabel: 0.0
--
compound: S=C(SSSSSSC(=S)N1CCCCC1)N1CCCCC1
discreteLabel: 1.0
--
compound: Cc1c(C)n(Cc2ccccc2)c2ccc(C(=O)OCCN(C)C)cc12
discreteLabel: 1.0
--
compound: COC(=O)CC#N
discreteLabel: 0.0
--
compound: CSc1c(Cl)c(Cl)c(Cl)c(Cl)c1Cl
discreteLabel: 0.0
--
compound: O=C(c1ccccc1)c1cc(Cl)ccc1O
discreteLabel: 0.0
--
compound: O=C1Nc2ccc(Cl)cc2[C@@](C#CC2CC2)(C(F)(F)F)O1
discreteLabel: 1.0
--
compound: C(=C/c1ccccc1)/c1ccccc1
discreteLabel: 0.0
--
compound: CC(=O)Nc1ccc(O)cc1
discreteLabel: 0.0
--
compound: Cc1ccc(N)cc1O
discreteLabel: 1.0
--
compound: CCCCCCCCCCCCCCCC
discreteLabel: 0.0
--
compound: O=C(O)CCCCCCC(=O)O
discreteLabel: 0.0
--
compound: Cc1ccc2ccc3cccc4ccc1c2c34
discreteLabel: 0.0
--
compound: CC(CN(C)C)CN1c2ccccc2CCc2ccccc21 (configuration not stated)
discreteLabel: 1.0
--
compound: CCCCCCCOC(=O)c1ccc(O)cc1
discreteLabel: 0.0
--
compound: NC(=O)c1ccccc1N
discreteLabel: 0.0
--
compound: CCCCCCCC/C=C\CCCCCCCC(=O)NCc1ccc(O)c(OC)c1
discreteLabel: 1.0
--
compound: CC=O
discreteLabel: 1.0
--
compound: O=C1C=CC(=O)N1c1ccccc1
discreteLabel: 1.0
--
compound: C1CC(COCC2CO2)CCC1COCC1CO1 (configuration not stated)
discreteLabel: 1.0
--
compound: O=C(O)CC(=O)O
discreteLabel: 0.0
--
compound: COC(=O)NCCC[Si](OC)(OC)OC
discreteLabel: 1.0
--
compound: CC(C)(c1cc(Br)c(OCCO)c(Br)c1)c1cc(Br)c(OCCO)c(Br)c1
discreteLabel: 1.0
--
compound: C=CC(=O)OCC(O)COc1ccccc1 (configuration not stated)
discreteLabel: 1.0
--
compound: CN(Cc1cc(Br)cc(Br)c1N)C1CCCCC1
discreteLabel: 1.0
--
compound: CCOC(=O)C1=C(C)NC(C)=C(C(=O)OCC)C1c1ccccc1/C=C/C(=O)OC(C)(C)C
discreteLabel: 1.0
--
compound: C=CC(=O)OCCOCC(CC)(COCCOC(=O)C=C)COCCOC(=O)C=C
discreteLabel: 1.0
--
compound: CCCSS/C(CCO)=C(\C)N(C=O)Cc1cnc(C)nc1N
discreteLabel: 1.0
--
compound: CCCCCCCCCCCCCCNCCO
discreteLabel: 1.0
--
compound: C[C@@H]1CC[C@H]2C(C)(C)[C@H]3C[C@@]12CC[C@@]3(C)O
discreteLabel: 0.0
--
compound: Cc1occc1SSc1ccoc1C
discreteLabel: 1.0
--
compound: C[n+]1c2cc(N)ccc2cc2ccc(N)cc21 (tested in a mixture with another compound)
discreteLabel: 1.0
--
compound: S=P(N1CC1)(N1CC1)N1CC1
discreteLabel: 1.0
--
compound: CCN(CC)CCNc1ccc(CO)c2sc3ccccc3c(=O)c12
discreteLabel: 1.0
--
compound: CCCCN(CCCC)CCC(O)c1cc2c(Cl)cc(Cl)cc2c2cc(C(F)(F)F)ccc12 (configuration not stated)
discreteLabel: 1.0
--
compound: CCCCCCOc1cc(C)c(O)c(C)c1C
discreteLabel: 1.0
--
compound: CCCCOC(=O)C(C)CC (configuration not stated)
discreteLabel: 1.0
--
compound: CCN(CC)CCOc1ccc(C(O)(Cc2ccc(Cl)cc2)c2ccc(C)cc2)cc1 (configuration not stated)
discreteLabel: 1.0
--
compound: CCCCCCCC/C=C/CCCOC(C)=O
discreteLabel: 0.0
--
compound: CCCN(CCc1cccs1)[C@H]1CCc2c(O)cccc2C1
discreteLabel: 1.0
--
compound: NC(=O)c1nc(-c2cccc(-c3cc(F)ccc3OCC(F)(F)C(F)(F)F)c2)n[nH]1
discreteLabel: 1.0
--
compound: CC(C(O)c1ccccc1)N(C)CCOC(c1ccccc1)c1ccccc1 (configuration not stated)
discreteLabel: 1.0
